Readings of MBIC at 488 and 530 nm LD90 for the listed compounds
tested on: P. aeruginosa PAO1 GFP; test: MBIC, prevention of biofilm formation, GFP fluorescence method; assay type: cell-based, Pseudomonas aeruginosa; conditions: Table 2, BM2 medium, mean of three biological replicates
Residues, ends and D or L forms follow the SMILES beside them.
measured.quantity: MBIC at 488 and 530 nm LD90 (µmol/L)

INSERT INTO measurements (compound, censoring_operator, numeric_readout) VALUES
  ('CC(C)C[C@H](NC(=O)[C@H](Cc1ccccc1)NC(=O)[C@@H]1CCCN1C(=O)[C@H](Cc1ccccc1)NC(=O)[C@H](Cc1ccccc1)NC(=O)[C@H](Cc1ccccc1)NC(=O)[C@@H]1CCCN1C(=O)[C@H](Cc1ccccc1)NC(=O)[C@H](CCCNC(=N)N)NC(=O)[C@H](CCCNC(=N)N)NC(=O)[C@@H](N)C(C)C)C(=O)N[C@@H](CCCNC(=N)N)C(=O)N[C@@H](CCCNC(=N)N)C(N)=O [Tritrp-W678F] (H-VRRFPFFFPFLRR-NH2)', '=', 64),
  ('CC(C)C[C@H](NC(=O)[C@H](Cc1ccccc1)NC(=O)[C@H](C)NC(=O)[C@H](Cc1c[nH]c2ccccc12)NC(=O)[C@H](Cc1c[nH]c2ccccc12)NC(=O)[C@H](Cc1c[nH]c2ccccc12)NC(=O)[C@@H]1CCCN1C(=O)[C@H](Cc1ccccc1)NC(=O)[C@H](CCCCN)NC(=O)[C@H](CCCCN)NC(=O)[C@@H](N)C(C)C)C(=O)N[C@@H](CCCCN)C(=O)N[C@@H](CCCCN)C(N)=O [Tritrp-P9A-Lys] (H-VKKFPWWWAFLKK-NH2)', '=', 8),
  ('N=C(N)NCCC[C@H](NC(=O)[C@H](CCCNC(=N)N)NC(=O)[C@@H](N)CCCNC(=N)N)C(=O)N[C@@H](Cc1c[nH]c2ccccc12)C(=O)N[C@@H](Cc1c[nH]c2ccccc12)C(=O)N[C@@H](Cc1c[nH]c2ccccc12)C(N)=O [RRRWWW-NH2] (H-RRRWWW-NH2)', '=', 128),
  ('CC(C)C[C@H](NC(=O)[C@H](Cc1ccccc1)NC(=O)[C@H](C)NC(=O)[C@H](Cc1c[nH]c2ccccc12)NC(=O)[C@H](Cc1c[nH]c2ccccc12)NC(=O)[C@H](Cc1c[nH]c2ccccc12)NC(=O)[C@@H]1CCCN1C(=O)[C@H](Cc1ccccc1)NC(=O)[C@H](CCCNC(=N)N)NC(=O)[C@H](CCCNC(=N)N)NC(=O)[C@@H](N)C(C)C)C(=O)N[C@@H](CCCNC(=N)N)C(=O)N[C@@H](CCCNC(=N)N)C(N)=O [Tritrp-P9A] (H-VRRFPWWWAFLRR-NH2)', '=', 2),
  ('CC(C)[C@H](NC(=O)[C@@H]1CCCN1C(=O)[C@@H](N)Cc1ccccc1)C(=O)N[C@H](C(=O)N[C@@H](Cc1c[nH]c2ccccc12)C(=O)N[C@@H](CCCNC(=N)N)C(=O)N[C@@H](Cc1c[nH]c2ccccc12)C(=O)N[C@@H](Cc1c[nH]c2ccccc12)C(=O)N[C@@H](CCCNC(=N)N)C(=O)N[C@@H](Cc1c[nH]c2ccccc12)C(=O)N[C@@H](Cc1c[nH]c2ccccc12)C(=O)N[C@@H](CCCNC(=N)N)C(=O)NCC(N)=O)[C@@H](C)O [PuroA-Arg, reference compound] (H-FPVTWRWWRWWRG-NH2)', '=', 8),
  ('CC(C)C[C@H](NC(=O)[C@H](Cc1ccccc1)NC(=O)[C@H](C)NC(=O)[C@H](Cc1c[nH]c2ccccc12)NC(=O)[C@H](Cc1c[nH]c2ccccc12)NC(=O)[C@H](Cc1c[nH]c2ccccc12)NC(=O)[C@H](C)NC(=O)[C@H](Cc1ccccc1)NC(=O)[C@H](CCCNC(=N)N)NC(=O)[C@H](CCCNC(=N)N)NC(=O)[C@@H](N)C(C)C)C(=O)N[C@@H](CCCNC(=N)N)C(=O)N[C@@H](CCCNC(=N)N)C(N)=O [Tritrp-P59A] (H-VRRFAWWWAFLRR-NH2)', '=', 4),
  ('CC(C)C[C@H](NC(=O)[C@H](Cc1ccccc1)NC(=O)[C@@H]1CCCN1C(=O)[C@H](Cc1c[nH]c2ccccc12)NC(=O)[C@H](Cc1c[nH]c2ccccc12)NC(=O)[C@H](Cc1c[nH]c2ccccc12)NC(=O)[C@@H]1CCCN1C(=O)[C@H](Cc1ccccc1)NC(=O)[C@H](CCCCN)NC(=O)[C@H](CCCCN)NC(=O)[C@@H](N)C(C)C)C(=O)N[C@@H](CCCCN)C(=O)N[C@@H](CCCCN)C(N)=O [Tritrp-Lys] (H-VKKFPWWWPFLKK-NH2)', '=', 32),
  ('CC(C)C[C@H](NC(=O)[C@H](Cc1ccccc1)NC(=O)[C@@H]1CCCN1C(=O)[C@H](Cc1ccc(O)cc1)NC(=O)[C@H](Cc1ccc(O)cc1)NC(=O)[C@H](Cc1ccc(O)cc1)NC(=O)[C@@H]1CCCN1C(=O)[C@H](Cc1ccccc1)NC(=O)[C@H](CCCNC(=N)N)NC(=O)[C@H](CCCNC(=N)N)NC(=O)[C@@H](N)C(C)C)C(=O)N[C@@H](CCCNC(=N)N)C(=O)N[C@@H](CCCNC(=N)N)C(N)=O [Tritrp-W678Y] (H-VRRFPYYYPFLRR-NH2)', '>', 64),
  ('CC(C)[C@H](NC(=O)[C@@H]1CCCN1C(=O)[C@@H](N)Cc1ccccc1)C(=O)N[C@H](C(=O)N[C@@H](Cc1c[nH]c2ccccc12)C(=O)N[C@@H](CCCCN)C(=O)N[C@@H](Cc1c[nH]c2ccccc12)C(=O)N[C@@H](Cc1c[nH]c2ccccc12)C(=O)N[C@@H](CCCCN)C(=O)N[C@@H](Cc1c[nH]c2ccccc12)C(=O)N[C@@H](Cc1c[nH]c2ccccc12)C(=O)N[C@@H](CCCCN)C(=O)NCC(N)=O)[C@@H](C)O [PuroA-Lys, reference compound] (H-FPVTWKWWKWWKG-NH2)', '=', 8),
  ('N=C(N)NCCC[C@H](NC(=O)[C@H](Cc1c[nH]c2ccccc12)NC(=O)[C@H](Cc1c[nH]c2ccccc12)NC(=O)[C@H](Cc1c[nH]c2ccccc12)NC(=O)[C@H](CCCNC(=N)N)NC(=O)[C@@H](N)CCCNC(=N)N)C(N)=O [RRWWWR-NH2] (H-RRWWWR-NH2)', '=', 128),
  ('CC[C@H](C)[C@H](N)C(=O)N[C@@H](CC(C)C)C(=O)N1CCC[C@H]1C(=O)N[C@@H](Cc1c[nH]c2ccccc12)C(=O)N[C@@H](CCCCN)C(=O)N[C@@H](Cc1c[nH]c2ccccc12)C(=O)N1CCC[C@H]1C(=O)N[C@@H](Cc1c[nH]c2ccccc12)C(=O)N[C@@H](Cc1c[nH]c2ccccc12)C(=O)N1CCC[C@H]1C(=O)N[C@@H](Cc1c[nH]c2ccccc12)C(=O)N[C@@H](CCCNC(=N)N)C(=O)N[C@@H](CCCNC(=N)N)C(N)=O [Indolicidin, reference compound]', '=', 32);

---

tested on: P. aeruginosa PAO1 GFP; assay: MBIC, prevention of biofilm formation, GFP fluorescence method; assay type: cell-based, Pseudomonas aeruginosa; conditions: Table 2, BM2 medium, mean of three biological replicates
Residues, ends and D or L forms follow the SMILES beside them.
measured.quantity: MBIC at 488 and 530 nm LD90 (µmol/L)

INSERT INTO results (molecule, system_name, measured_quantity, numeric_readout) VALUES
  ('CC(C)C[C@H](NC(=O)[C@H](Cc1ccccc1)NC(=O)[C@@H]1CCCN1C(=O)[C@H](Cc1c[nH]c2ccccc12)NC(=O)[C@H](Cc1c[nH]c2ccccc12)NC(=O)[C@H](Cc1c[nH]c2ccccc12)NC(=O)[C@H](C)NC(=O)[C@H](Cc1ccccc1)NC(=O)[C@H](CCCNC(=N)N)NC(=O)[C@H](CCCNC(=N)N)NC(=O)[C@@H](N)C(C)C)C(=O)N[C@@H](CCCNC(=N)N)C(=O)N[C@@H](CCCNC(=N)N)C(N)=O [Tritrp-P5A] (H-VRRFAWWWPFLRR-NH2)', 'P. aeruginosa PAO1 GFP', 'MBIC at 488 and 530 nm LD90', 8);

---

Tested on: P. aeruginosa PAO1
Type: cell-based, Pseudomonas aeruginosa
Details: Table 5; PAO1, 1x BM2; biofilms on pegs, cells plated and counted; three biological replicates
Experimental: We note the close agreement with the MBIC and MBEC values determined by the fluorescence and CV methods, similar to what we found in our previous work for an S. aureus MRSA strain [23]. We also re-evaluated the MBEC values that are measured using the Calgary biofilm device (CBD), where biofilms form on pegs, rather than at the bottom of the 96-well plates. […] Figure 5 The MBEC values for the peptides were assessed against P. aeruginosa PAO1 in the presence of 1× BM2 medium. […]
measured.quantity: MBEC from Calgary Biofilm Device (CBD) LD90 (µmol/L)

INSERT INTO assay_data (molecule, system_name, numeric_readout) VALUES
  ('CC(C)C[C@H](NC(=O)[C@H](Cc1ccccc1)NC(=O)[C@@H]1CCCN1C(=O)[C@H](Cc1c[nH]c2ccccc12)NC(=O)[C@H](Cc1c[nH]c2ccccc12)NC(=O)[C@H](Cc1c[nH]c2ccccc12)NC(=O)[C@@H]1CCCN1C(=O)[C@H](Cc1ccccc1)NC(=O)[C@H](CCCNC(=N)N)NC(=O)[C@H](CCCNC(=N)N)NC(=O)[C@@H](N)C(C)C)C(=O)N[C@@H](CCCNC(=N)N)C(=O)N[C@@H](CCCNC(=N)N)C(N)=O [Tritrp-Arg]', 'P. aeruginosa PAO1', 32);

Origin of the recorded values: paper PMC11858513
